Molecular target: AeKir1 (Aedes aegypti, UniProt L0EQS9)
Sequence (L0EQS9 1-486): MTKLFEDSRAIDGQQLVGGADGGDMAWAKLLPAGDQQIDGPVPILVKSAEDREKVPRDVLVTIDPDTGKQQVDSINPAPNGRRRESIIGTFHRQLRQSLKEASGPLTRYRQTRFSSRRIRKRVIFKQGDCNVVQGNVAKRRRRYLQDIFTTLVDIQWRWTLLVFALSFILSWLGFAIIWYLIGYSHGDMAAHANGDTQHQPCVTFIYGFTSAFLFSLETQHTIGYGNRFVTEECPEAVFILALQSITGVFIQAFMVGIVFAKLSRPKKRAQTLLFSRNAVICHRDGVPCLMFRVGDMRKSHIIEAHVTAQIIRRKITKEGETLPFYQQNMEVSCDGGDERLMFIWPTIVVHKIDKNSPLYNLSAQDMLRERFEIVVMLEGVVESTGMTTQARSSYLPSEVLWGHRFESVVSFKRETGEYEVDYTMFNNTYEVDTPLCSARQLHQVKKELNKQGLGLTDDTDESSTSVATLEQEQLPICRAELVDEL
Assay: Tl+-flux assay in T-REx-HEK293 cells expressing AeKir1; also two-electrode voltage clamp in Xenopus oocytes ([…], […] block)
ENDPOINT: pIC50
In simple prose, pIC50 is minus the logarithm base ten of a concentration in moles per litre.

Task item: Suppose we examine the molecule O=[N+]([O-])c1ccc(CN2CCOCCOCCN(Cc3ccc([N+](=O)[O-])cc3)CCOCC2)cc1 ; what pIC50 value has been reported?
Reply: 5.25
